Reported concentration at 1 h values for the following compounds.
# ASSAY COMMENT: Intracolonic dosing with and without β-glucuronidase, catheterized rat
# Format: in vivo
# COND: male, Sprague Dawley, rat, plasma, other: intracolonic, 10 mg/kg, rats N=6; Compound 1 10 mg/kg intracolonic without enzyme; 1 hr

COMPOUND	concentration at 1 h, µg/mL
COc1cc2c(cc1OC)-c1nn(C3OC(C(=O)O)C(O)C(O)C3O)c(Nc3cccc(F)c3)c1C2 (stereo in doubt)	0.0512
COc1cc2c(cc1OC)-c1n[nH]c(N(c3cccc(F)c3)[C@H]3O[C@@H](C(=O)O)[C@H](O)[C@@H](O)[C@@H]3O)c1C2	4.82
COc1cc2c(cc1OC)-c1n[nH]c(Nc3cccc(F)c3)c1C2	0.0087

====

# ASSAY COMMENT: Intraduodenal dosing with and without β-glucuronidase, catheterized rat
# Format: in vivo
# COND: male, Sprague Dawley, rat, plasma, other: intraduodenal, 10 mg/kg, rats N=6; Compound 1 10 mg/kg intraduodenal with β-glucuronidase; 6 hrs
Reported concentration at 6 h values for the following compounds.

COMPOUND	concentration at 6 h
COc1cc2c(cc1OC)-c1n[nH]c(Nc3cccc(F)c3)c1C2 [Compound 1]	1.7 ng/mL
COc1cc2c(cc1OC)-c1nn(C3OC(C(=O)O)C(O)C(O)C3O)c(Nc3cccc(F)c3)c1C2 (stereo in doubt) [Cpd 1-GluB]	119 ng/mL
COc1cc2c(cc1OC)-c1n[nH]c(N(c3cccc(F)c3)[C@H]3O[C@@H](C(=O)O)[C@H](O)[C@@H](O)[C@@H]3O)c1C2 [Cpd 1-GluA]	462 ng/mL

====

Reported concentration at 0.67 h values for the following compounds.
# ASSAY COMMENT: Oral gavage pharmacokinetics, jugular and portal vein sampling, first pass metabolism
# Format: in vivo, rat
# COND: male, Sprague Dawley, rat, plasma (jugular vein sample); rats N=4; Compound 1 75 mg/kg oral gavage; jugular sample; 0.67 hrs
READOUT: concentration at 0.67 h (ng/mL)

COMPOUND	NUMBER
COc1cc2c(cc1OC)-c1nn(C3OC(C(=O)O)C(O)C(O)C3O)c(Nc3cccc(F)c3)c1C2 (stereo in doubt)	244
COc1cc2c(cc1OC)-c1n[nH]c(N(c3cccc(F)c3)[C@H]3O[C@@H](C(=O)O)[C@H](O)[C@@H](O)[C@@H]3O)c1C2	14700
COc1cc2c(cc1OC)-c1n[nH]c(Nc3cccc(F)c3)c1C2	626

====

Reported concentration at 3 h values for the following compounds.
# ASSAY COMMENT: Oral gavage pharmacokinetics, jugular and portal vein sampling, first pass metabolism
# Format: in vivo, rat
# COND: male, Sprague Dawley, rat, plasma (portal vein sample); rats N=4; Compound 1 75 mg/kg oral gavage; portal sample; 3 hrs
READOUT: concentration at 3 h (ng/mL)

COMPOUND	READOUT	UNIT OF MEASURE	NUMBER
COc1cc2c(cc1OC)-c1n[nH]c(Nc3cccc(F)c3)c1C2 [Compound 1]	concentration at 3 h	ng/mL	336
COc1cc2c(cc1OC)-c1nn(C3OC(C(=O)O)C(O)C(O)C3O)c(Nc3cccc(F)c3)c1C2 (stereo in doubt) [Cpd 1-GluB]	concentration at 3 h	ng/mL	105
COc1cc2c(cc1OC)-c1n[nH]c(N(c3cccc(F)c3)[C@H]3O[C@@H](C(=O)O)[C@H](O)[C@@H](O)[C@@H]3O)c1C2 [Cpd 1-GluA]	concentration at 3 h	ng/mL	10700

====

# ASSAY COMMENT: Solubility
# Type: physicochemical
# COND: aqueous media, aqueous buffer; pH 7.0; read-out: Solubility in aqueous media

MOLECULAR STRING	solubility
COc1cc2c(cc1OC)-c1n[nH]c(Nc3cccc(F)c3)c1C2	< 2 µg/mL

====

# ASSAY COMMENT: Oral gavage pharmacokinetics, jugular and portal vein sampling, first pass metabolism
# Assay type: in vivo, rat
# COND: male, Sprague Dawley, rat, plasma (portal vein sample); rats N=4; Compound 1 75 mg/kg oral gavage; portal sample; 1.25 hrs
READOUT: concentration at 1.25 h (ng/mL)

COMPOUND	UNIT OF MEASURE	NUMBER
COc1cc2c(cc1OC)-c1n[nH]c(Nc3cccc(F)c3)c1C2 [Compound 1]	ng/mL	972
COc1cc2c(cc1OC)-c1nn(C3OC(C(=O)O)C(O)C(O)C3O)c(Nc3cccc(F)c3)c1C2 (stereo in doubt) [Cpd 1-GluB]	ng/mL	183
COc1cc2c(cc1OC)-c1n[nH]c(N(c3cccc(F)c3)[C@H]3O[C@@H](C(=O)O)[C@H](O)[C@@H](O)[C@@H]3O)c1C2 [Cpd 1-GluA]	ng/mL	15100

====

Reported concentration at 0 h values for the following molecules.
# ASSAY COMMENT: Intraduodenal dosing with and without β-glucuronidase, catheterized rat
# Assay type: in vivo
# COND: male, Sprague Dawley, rat, plasma, other: intraduodenal, 10 mg/kg, rats N=6; Compound 1 10 mg/kg intraduodenal without enzyme; 0 hrs

MOLECULE	concentration at 0 h, ng/mL
COc1cc2c(cc1OC)-c1nn(C3OC(C(=O)O)C(O)C(O)C3O)c(Nc3cccc(F)c3)c1C2 (stereo in doubt)	0
COc1cc2c(cc1OC)-c1n[nH]c(N(c3cccc(F)c3)[C@H]3O[C@@H](C(=O)O)[C@H](O)[C@@H](O)[C@@H]3O)c1C2	0
COc1cc2c(cc1OC)-c1n[nH]c(Nc3cccc(F)c3)c1C2	0

====

# ASSAY COMMENT: Intracolonic dosing with and without β-glucuronidase, catheterized rat
# Format: in vivo
# COND: male, Sprague Dawley, rat, plasma, other: intracolonic, 10 mg/kg, rats N=6; Compound 1 10 mg/kg intracolonic without enzyme; 0.5 hrs
# Description: A catheterized rat model was used in which the agent alone or agent and β-glucuronidase enzyme was administered intraduodenally or intracolonically. […] A quantitative method for determining the amount of (6,7-dimethoxy-2,4-dihydro-indeno[1,2-c]pyrazol-3-yl)-(3-fluoro-phenyl)-amine Compound 1 and its major metabolites, glucuronide A (Cpd 1-GluA) and glucuronide B (Cpd 1-GluB) (see Scheme A) in rat plasma was developed using phenacetin as an internal standard. […]
READOUT: concentration at 0.5 h

MOLECULE	RESULT
COc1cc2c(cc1OC)-c1nn(C3OC(C(=O)O)C(O)C(O)C3O)c(Nc3cccc(F)c3)c1C2 (stereo in doubt) [Cpd 1-GluB]	72.4 ng/mL
COc1cc2c(cc1OC)-c1n[nH]c(N(c3cccc(F)c3)[C@H]3O[C@@H](C(=O)O)[C@H](O)[C@@H](O)[C@@H]3O)c1C2 [Cpd 1-GluA]	6450 ng/mL
COc1cc2c(cc1OC)-c1n[nH]c(Nc3cccc(F)c3)c1C2 [Compound 1]	8 ng/mL

====

# ASSAY COMMENT: Intraduodenal dosing with and without β-glucuronidase, catheterized rat
# Format: in vivo
# COND: male, Sprague Dawley, rat, plasma, other: intraduodenal, 10 mg/kg, rats N=6; Compound 1 10 mg/kg intraduodenal without enzyme; 0.25 hrs
Reported concentration at 0.25 h values for the following compounds.
READOUT: concentration at 0.25 h (ng/mL)

COMPOUND	READOUT	UNIT OF MEASURE	NUMBER
COc1cc2c(cc1OC)-c1n[nH]c(N(c3cccc(F)c3)[C@H]3O[C@@H](C(=O)O)[C@H](O)[C@@H](O)[C@@H]3O)c1C2	concentration at 0.25 h	ng/mL	666
COc1cc2c(cc1OC)-c1nn(C3OC(C(=O)O)C(O)C(O)C3O)c(Nc3cccc(F)c3)c1C2 (stereo in doubt)	concentration at 0.25 h	ng/mL	70.2
COc1cc2c(cc1OC)-c1n[nH]c(Nc3cccc(F)c3)c1C2	concentration at 0.25 h	ng/mL	75.2

====

# ASSAY COMMENT: Oral gavage pharmacokinetics, jugular and portal vein sampling, first pass metabolism
# Type: in vivo, rat
# COND: male, Sprague Dawley, rat, plasma (jugular vein sample); rats N=4; Compound 1 75 mg/kg oral gavage; jugular sample; read-out: Cmax average ± standard deviation

COMPOUND	UNIT OF MEASURE	Cmax
COc1cc2c(cc1OC)-c1nn(C3OC(C(=O)O)C(O)C(O)C3O)c(Nc3cccc(F)c3)c1C2 (stereo in doubt)	ng/mL	268
COc1cc2c(cc1OC)-c1n[nH]c(N(c3cccc(F)c3)[C@H]3O[C@@H](C(=O)O)[C@H](O)[C@@H](O)[C@@H]3O)c1C2	ng/mL	17600
COc1cc2c(cc1OC)-c1n[nH]c(Nc3cccc(F)c3)c1C2	ng/mL	2120

====

# ASSAY COMMENT: Oral gavage pharmacokinetics, jugular and portal vein sampling, first pass metabolism
# Assay type: in vivo, rat
# COND: male, Sprague Dawley, rat, plasma (jugular vein sample); rats N=4; Compound 1 75 mg/kg oral gavage; jugular sample; 24 hrs
Reported concentration at 24 h values for the following compounds.
READOUT: concentration at 24 h

COMPOUND	READOUT	RESULT
COc1cc2c(cc1OC)-c1n[nH]c(Nc3cccc(F)c3)c1C2 [Compound 1]	concentration at 24 h	7.7 ng/mL
COc1cc2c(cc1OC)-c1nn(C3OC(C(=O)O)C(O)C(O)C3O)c(Nc3cccc(F)c3)c1C2 (stereo in doubt) [Cpd 1-GluB]	concentration at 24 h	29 ng/mL
COc1cc2c(cc1OC)-c1n[nH]c(N(c3cccc(F)c3)[C@H]3O[C@@H](C(=O)O)[C@H](O)[C@@H](O)[C@@H]3O)c1C2 [Cpd 1-GluA]	concentration at 24 h	2470 ng/mL
